# Test system: SW48 human colorectal cancer cells (MSI-H cancer cells)
# PROTOCOL_NOTES: SW48 cell viability, CellTiter-Glo, 120 hours (Example B)
# MEASUREMENT_SETUP: measured potency from Example B, as repeated in Table 3
ENDPOINT_NAME: SW48 pCC50
The answer should be written as a number, with no unit following it.

Ask: Quote SW48 pCC50 reported for Cc1nc2cc(S(=O)(=O)N(C)c3ccc([C@H]4C[C@@H](N5CCC[C@@H](F)C5)C[C@@H](C(=O)Nc5ccc(C(F)(F)F)cc5F)[C@@H]4C(=O)O)cc3)ccc2n1C (single isomer, unassigned) [Example 376] please.
Result: 7.1

Ask: Identify measured SW48 pCC50 corresponding to CN(c1ccc([C@H]2CCC[C@@H](C(=O)Nc3ccc(C(F)(F)F)cc3F)[C@@H]2C(=O)O)cc1)S(=O)(=O)c1ccc(-c2ccn(C)n2)cc1
Result: 6.1

Ask: Supply reported SW48 pCC50 belonging to this compound: Cc1nc2cc(S(=O)(=O)N(C)c3ccc([C@H]4C[C@@H]5OCC[C@@H]5[C@@H](C(=O)Nc5ccc(C(F)(F)F)cc5F)[C@@H]4C(=O)O)cc3)ccc2n1C (single isomer, unassigned) [Example 158]
Result: 5.4

---

# System: SW48 human colorectal cancer cells
# PROTOCOL_NOTES: Calculated free drug potency in SW48 cell assay, corrected with media free fraction (Example C)
# Format: cell-based
# MEASUREMENT_SETUP: Homo sapiens, SW48, SW48 pCC50 corrected with measured free fraction in cell assay media
Counter-ions that a name gives are not always drawn.
Assignment: determine reported CC50 for the given compounds.
Quick note: give the figure in nM, leave out the unit.

Ask: Could you please provide reported CC50 for Cc1nc2cc(S(=O)(=O)N(C)c3ccc([C@H]4CCC[C@@H](C(=O)Nc5ccc(C(C)C)cc5)[C@@H]4C(=O)O)cc3)ccc2n1C [Example 396] ? Thanks!
Result: 45.7

Ask: Provide one value: measured CC50 of CN(c1ccc([C@H]2CCC[C@@H](C(=O)Nc3ccc(C(F)(F)F)cc3F)[C@@H]2C(=O)O)cc1)S(=O)(=O)c1ccc2c(c1)nc(CO)n2C [Example 372]
Result: 41.7

Ask: Complete the entry with CC50 for Cc1nc2cc(S(=O)(=O)N(C)c3ccc([C@H]4C[C@@H](OCC5CC6CCC(C5)O6)C[C@@H](C(=O)Nc5ccc(C(F)(F)F)cc5F)[C@@H]4C(=O)O)cc3)ccc2n1C (single isomer, unassigned) [Example 360]
Result: 5.89

Ask: Report measured CC50; entry is Cc1nnc(-c2cc([C@@H]3CCC[C@H](C(=O)Nc4ccc(C(F)(F)F)cc4F)[C@H]3C(=O)O)ccc2C(F)(F)F)o1 (single isomer, unassigned) [Example 245]
Result: 776

Ask: Given the compound Cc1nc2cc(S(=O)(=O)N(C)c3ccc([C@@H]4CCC[C@H](COc5ccc(C(F)(F)F)cc5)[C@H]4C(=O)O)cc3)cc([C@H]3CCCNC3)c2n1C (stereo in doubt) [Example 208, hydrochloride] , write its reported CC50.
Result: 36.3

Ask: Specify measured CC50 for CN1CCN(C)c2cc(S(=O)(=O)N(C)c3ccc([C@H]4CCC[C@@H](C(=O)Nc5ccc(C(F)(F)F)cc5F)[C@@H]4C(=O)O)cc3)ccc21 [Example 123] .
Result: 3.55

Ask: Tell me measured CC50 for COC[C@@H]1C[C@H](c2ccc(N(C)S(=O)(=O)c3ccc4c(c3)nc(C)n4C)cc2)[C@@H](C(=O)O)[C@H](C(=O)Nc2ccc(C(F)(F)F)cc2F)C1 (single isomer, unassigned) [Example 250] please.
Result: 8.51

Ask: Kindly indicate its recorded CC50. Item: Cc1nc2cc(S(=O)(=O)N(C)c3ccc([C@H]4CCC[C@@H](C(=O)Nc5ccc(C(F)F)cc5F)[C@@H]4C(=O)O)cc3)ccc2n1C [Example 179]
Result: 145

Ask: State its CC50 for this compound: Cc1nc2cc(S(=O)(=O)N(C)c3ccc([C@H]4CCC[C@@H](C(=O)N[C@H]5CC[C@H](C(C)C)CC5)[C@@H]4C(=O)O)cc3)ccc2n1C [Example 180]
Result: 22.4

Ask: Note CC50 for the compound shown: Cc1nc2cc(S(=O)(=O)N(C)c3ccc([C@@H]4C[C@@H](N5CCCC(F)(F)C5)C[C@H](C(=O)Nc5ccc(C(F)(F)F)cc5F)[C@H]4C(=O)O)cc3)ccc2n1C (stereo in doubt) [Example 362]
Result: 1700

Ask: Entry Cc1nc2cc(S(=O)(=O)N(C)c3ccc([C@H]4C[C@H](NCC(F)(F)F)C[C@@H](C(=O)Nc5ccc(C(F)(F)F)cc5F)[C@@H]4C(=O)O)cc3)ccc2n1C (stereo in doubt) [Example 336] needs its CC50 filled in; supply it.
Result: 155

---

Hi there, I'd appreciate the recorded IC50 for every entry that follows.
# TARGET_OR_SYSTEM: recombinant full-length WRN protein (1-1432) (Homo sapiens)
# Construct: recombinant full-length WRN protein (1-1432)
# Sequence (Q14191 whole entry): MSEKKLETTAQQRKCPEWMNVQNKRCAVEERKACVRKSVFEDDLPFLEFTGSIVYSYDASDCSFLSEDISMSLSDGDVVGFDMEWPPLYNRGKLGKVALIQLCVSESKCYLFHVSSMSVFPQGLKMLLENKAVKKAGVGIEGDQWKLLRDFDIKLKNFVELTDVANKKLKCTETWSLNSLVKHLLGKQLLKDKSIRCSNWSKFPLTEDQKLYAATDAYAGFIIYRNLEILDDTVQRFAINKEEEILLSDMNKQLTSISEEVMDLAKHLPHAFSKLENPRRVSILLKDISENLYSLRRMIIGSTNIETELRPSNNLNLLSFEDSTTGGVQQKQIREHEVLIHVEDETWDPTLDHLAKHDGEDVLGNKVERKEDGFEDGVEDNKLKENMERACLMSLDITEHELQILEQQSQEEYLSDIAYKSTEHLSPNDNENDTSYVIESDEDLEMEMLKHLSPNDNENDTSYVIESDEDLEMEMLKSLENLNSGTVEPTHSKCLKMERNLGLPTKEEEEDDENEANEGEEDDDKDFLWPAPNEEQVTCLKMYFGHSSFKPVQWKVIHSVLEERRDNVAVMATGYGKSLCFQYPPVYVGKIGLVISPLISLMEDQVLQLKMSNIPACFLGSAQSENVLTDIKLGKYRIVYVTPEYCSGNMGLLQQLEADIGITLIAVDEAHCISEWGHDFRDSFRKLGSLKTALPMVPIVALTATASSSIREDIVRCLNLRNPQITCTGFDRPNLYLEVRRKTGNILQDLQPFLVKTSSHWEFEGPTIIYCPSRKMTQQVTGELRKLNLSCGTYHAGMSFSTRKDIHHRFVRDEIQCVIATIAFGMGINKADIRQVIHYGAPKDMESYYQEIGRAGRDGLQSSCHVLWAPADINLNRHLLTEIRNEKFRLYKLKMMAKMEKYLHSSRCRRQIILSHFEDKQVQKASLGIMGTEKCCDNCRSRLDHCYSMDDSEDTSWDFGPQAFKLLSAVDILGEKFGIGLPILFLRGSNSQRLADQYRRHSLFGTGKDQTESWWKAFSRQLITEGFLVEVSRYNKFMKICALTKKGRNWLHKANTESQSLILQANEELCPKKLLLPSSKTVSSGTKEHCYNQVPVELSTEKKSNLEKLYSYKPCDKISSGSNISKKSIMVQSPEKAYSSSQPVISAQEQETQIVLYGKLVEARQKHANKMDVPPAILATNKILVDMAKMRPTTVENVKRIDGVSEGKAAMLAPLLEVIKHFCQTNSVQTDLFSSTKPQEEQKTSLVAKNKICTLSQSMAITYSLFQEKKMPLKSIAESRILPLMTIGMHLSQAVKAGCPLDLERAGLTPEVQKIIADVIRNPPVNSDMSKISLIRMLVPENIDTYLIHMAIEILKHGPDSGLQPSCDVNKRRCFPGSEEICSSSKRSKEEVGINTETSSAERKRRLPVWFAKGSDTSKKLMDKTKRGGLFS
# PROTOCOL_NOTES: WRN unwinding activity, fluorogenic 384-well assay (Example A)
# Type: biochemical
# MEASUREMENT_SETUP: WRN unwinding activity, 4 hr; Table 2; read-out: 4 hr UNW pIC50 (converted)
Just the number in nM, nothing appended.

Ask: Determine its reported IC50: Cc1nc2cc(S(=O)(=O)N(C)c3ccc([C@H]4C[C@@H](OC5CCC5)C[C@@H](C(=O)Nc5ccc(C(F)(F)F)cc5F)[C@@H]4C(=O)O)cc3)ccc2n1C (stereo in doubt) [Example 325]
Result: 2

Ask: Output IC50 of COc1cscc1-c1ccc([C@H]2CCC[C@@H](C(=O)Nc3ccc(C(F)(F)F)cc3F)[C@@H]2C(=O)O)cc1 [Example 42]
Result: 1000

Ask: Return value of IC50 for input N#Cc1cc([C@H]2CCC[C@@H](C(=O)Nc3ccc(C(F)(F)F)cc3F)[C@@H]2C(=O)O)ccc1Br (single isomer, unassigned) [Example 230] , no commentary.
Result: 100

Ask: Provide only the value of recorded IC50 for O=C(O)[C@@H]1[C@@H](c2ccc(-c3ccoc3)cc2)CCC[C@H]1C(=O)Nc1ccc(C(F)(F)F)cc1F [Example 10]
Result: 100

Ask: Please report IC50 for the following compound: Cc1nc2cc(S(=O)(=O)N(C)c3ccc([C@H]4C[C@H](N)C[C@@H](C(=O)Nc5ccc(C(F)(F)F)cc5F)[C@@H]4C(=O)O)cc3)ccc2n1C (stereo in doubt) [Example 300]
Result: 1.58

Ask: Give the reported IC50 for this compound. CN(c1ccc([C@H]2CCC[C@@H](C(=O)Nc3ccc(C(F)(F)F)cc3F)[C@@H]2C(=O)O)cc1)S(=O)(=O)c1cccc(C(=O)N2CCOCC2)c1 [Example 119]
Result: 1.58

Ask: Please report IC50 for the following compound: Cc1nc2cc(S(=O)(=O)N(C)c3ccc([C@H]4C[C@@H](N5CC[C@@H](F)C5)C[C@@H](C(=O)Nc5ccc(C(F)(F)F)cc5F)[C@@H]4C(=O)O)cc3)ccc2n1C (stereo in doubt) [Example 382]
Result: 1.58

Ask: Using known records, supply IC50 for Cc1nc2cc(S(=O)(=O)N(C)c3ccc([C@@H]4C[C@@H]5COC[C@@H]5[C@@H](C(=O)Nc5ccc(C(F)(F)F)cc5F)[C@@H]4C(=O)O)cc3)ccc2n1C (single isomer, unassigned) [Example 390]
Result: 6.31

Ask: Give the reported value of IC50 for this record: O=C(O)[C@@H]1[C@@H](c2ccc(-c3ccccc3CN3CCOCC3)cc2)CCC[C@H]1C(=O)Nc1ccc(C(F)(F)F)cc1F [Example 4]
Result: 1000

Ask: Please give measured IC50 of the following entry: CN(c1ccc([C@H]2CCC[C@@H](C(=O)Nc3ccc(C(F)(F)F)cc3F)[C@@H]2C(=O)O)cc1)S(=O)(=O)c1cc(I)c2occc2c1 [Example 94]
Result: 50.1

Ask: Identify the reported IC50 for the following entry. CN(c1ccc([C@H]2CCC[C@@H](C(=O)Nc3ccc(C(F)(F)F)cc3F)[C@@H]2C(=O)O)cc1)S(=O)(=O)c1cccc(C2CC2(F)F)c1 (some centres unmarked) [Example 120]
Result: 10

---

# Tested on: SW48 human colorectal cancer cells
# PROTOCOL_NOTES: Calculated free drug potency in SW48 cell assay, corrected with media free fraction (Example C)
# Format: cell-based
# MEASUREMENT_SETUP: Homo sapiens, SW48, SW48 pCC50 corrected with measured free fraction in cell assay media
ENDPOINT_NAME: log10 CC50 (log10 of the value in nM)
Scale: log10; quantity: CC50; unit before log: nM

Ask: Report log10 CC50 under test system SW48 human colorectal cancer cells for Cc1nc2cc(S(=O)(=O)N(C)c3ccc([C@H]4C[C@@H](O[C@@H]5CCOC5)C[C@@H](C(=O)Nc5ccc(C(F)(F)F)cc5F)[C@@H]4C(=O)O)cc3)ccc2n1C (relative stereo) [Example 321] .
Result: 1.50

Ask: State, for SW48 human colorectal cancer cells, measured log10 CC50 of the molecule listed here: Cc1nc2cc(S(=O)(=O)N(C)c3ccc([C@H]4C[C@@H](OCC5(C)COC5)C[C@@H](C(=O)Nc5ccc(C(F)(F)F)cc5F)[C@@H]4C(=O)O)cc3)ccc2n1C (stereo in doubt) [Example 367]
Result: 1.06

Ask: Identify measured log10 CC50 obtained with SW48 human colorectal cancer cells for CCO[C@@H]1C[C@H](c2ccc(N(C)S(=O)(=O)c3ccc4[nH]c(C)nc4c3)cc2)[C@@H](C(=O)O)[C@H](C(=O)Nc2ccc(C(F)(F)F)cc2F)C1 [Example 281] .
Result: 2.07

Ask: Specify the recorded log10 CC50 for CCO[C@@H]1C[C@H](c2ccc(N(C)S(=O)(=O)c3ccc4c(c3)nc(CO)n4C)cc2)[C@@H](C(=O)O)[C@H](C(=O)Nc2ccc(C(F)(F)F)cc2F)C1 [Example 373] , system: SW48 human colorectal cancer cells.
Result: 1.24

Ask: Look up SW48 human colorectal cancer cells data: log10 CC50 of Cc1nc2cc(S(=O)(=O)N(C)c3ccc([C@H]4CCC[C@@H](C(=O)N[C@H]5CC[C@H](C(F)(F)F)CC5)[C@@H]4C(=O)O)cc3)ccc2n1C [Example 177] , then report it.
Result: 2.57

Ask: // fetch log10 CC50; item: CCO[C@@H]1C[C@H](c2ccc(N(C)S(=O)(=O)c3ccc4c(c3)ncn4C)cc2)[C@@H](C(=O)O)[C@H](C(=O)Nc2ccc(C(F)(F)F)cc2F)C1 [Example 140] ; system: SW48 human colorectal cancer cells
Result: 1.20

Ask: Provide log10 CC50, tested on SW48 human colorectal cancer cells, for CN(c1ccc([C@H]2CCC[C@@H](C(=O)Nc3ccc(C(F)(F)F)cc3F)[C@@H]2C(=O)O)cc1)S(=O)(=O)c1cccc(C(=O)N2CCOCC2)c1 [Example 119] .
Result: 2.36

Ask: Write log10 CC50 of CN(C)Cc1cccc(S(=O)(=O)N(C)c2ccc([C@H]3CCC[C@@H](C(=O)Nc4ccc(C(F)(F)F)cc4F)[C@@H]3C(=O)O)cc2)c1 [Example 97] ; system used: SW48 human colorectal cancer cells
Result: 2.38
